All figures here come from paper doi:10.1101/2024.12.09.627639v1.

Target: FFA1 (GPR40) (Homo sapiens)
Sequence (O14842 whole entry): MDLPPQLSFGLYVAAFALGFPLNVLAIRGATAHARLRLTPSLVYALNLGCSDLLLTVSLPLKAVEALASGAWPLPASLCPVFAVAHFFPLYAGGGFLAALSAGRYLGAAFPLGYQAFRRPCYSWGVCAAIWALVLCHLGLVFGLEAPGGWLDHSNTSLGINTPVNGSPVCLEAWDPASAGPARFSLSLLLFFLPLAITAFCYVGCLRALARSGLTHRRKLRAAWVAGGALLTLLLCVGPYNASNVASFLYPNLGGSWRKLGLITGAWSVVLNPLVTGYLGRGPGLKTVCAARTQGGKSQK
Assay: aequorin calcium luminescence assay, CHO cells
attribute measured: EC50 (µM)
Answers are plain numbers, in µM.

Lookup: Read the entry CC/C=C\C/C=C\C/C=C\C/C=C\C/C=C\C/C=C\CCC(=O)O and write its reported EC50.
Found: 40
